target: T1, human immunoglobulin E (hIgE) (human, UniProt P01854-1 1-428); assay: competition ELISA, hIgE to coated hFcεRIα, pH 7.4
T1 construct: also called human IgE; Native IgE (Abcam)
T1 sequence (P01854 whole entry): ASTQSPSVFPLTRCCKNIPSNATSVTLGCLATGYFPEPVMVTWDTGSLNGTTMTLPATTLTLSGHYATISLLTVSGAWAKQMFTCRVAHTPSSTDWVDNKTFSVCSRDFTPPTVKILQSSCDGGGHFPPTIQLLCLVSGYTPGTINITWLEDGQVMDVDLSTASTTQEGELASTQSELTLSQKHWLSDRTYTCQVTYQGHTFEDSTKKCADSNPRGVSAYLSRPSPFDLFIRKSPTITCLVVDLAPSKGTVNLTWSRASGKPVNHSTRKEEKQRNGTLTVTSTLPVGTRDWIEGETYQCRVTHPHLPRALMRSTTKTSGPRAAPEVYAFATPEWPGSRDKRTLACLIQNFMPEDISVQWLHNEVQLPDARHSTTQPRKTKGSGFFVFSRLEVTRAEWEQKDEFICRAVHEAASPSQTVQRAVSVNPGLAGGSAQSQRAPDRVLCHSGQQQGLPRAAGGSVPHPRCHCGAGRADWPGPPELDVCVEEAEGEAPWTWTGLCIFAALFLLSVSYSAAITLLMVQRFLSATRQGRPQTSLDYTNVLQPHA
With a cut-off of 0.2 µg/mL, any IC50 strictly below it is called y; any IC50 meeting it or above is called n.

{"BINDER": "18E2_H S35H_MG (antibody, V domains shown, germlined clone) VH: EVQLLESGGGLVQPGGSLRLSCAASGFTFSSYVMHWVRQAPGKGLEWVSSIYHDGSHTYYADFVKGRFTISRDNSKNTLYLQMNSLRAEDTAVYYCAKGTSYSGSYYYTDPFFGSWGQGTLVTVSS VL: SSELTQDPAVSVALGQTVRITCQGDRLGSRYIYWYQQKPGQAPVLVIYDDDRRPSGIPDRFSGSSSGNTASLTITGAQAEDEADYYCQSADSSGNPVFGGGTQLTVL", "DISCRETE_LABEL": "y"}
{"BINDER": "18E2His2_MG (antibody, V domains shown, also called 18E2VHS35HVLY34HMG) VH: EVQLLESGGGLVQPGGSLRLSCAASGFTFSSYVMHWVRQAPGKGLEWVSSIYHDGSHTYYADFVKGRFTISRDNSKNTLYLQMNSLRAEDTAVYYCAKGTSYSGSYYYTDPFFGSWGQGTLVTVSS VL: SSELTQDPAVSVALGQTVRITCQGDRLGSRYIHWYQQKPGQAPVLVIYDDDRRPSGIPDRFSGSSSGNTASLTITGAQAEDEADYYCQSADSSGNPVFGGGTQLTVL", "DISCRETE_LABEL": "n"}
{"BINDER": "18B9His_MG (antibody, V domains shown) VH: EVQLLESGGGLVQPGGSLRLSCAASGFTFSSYVMSWVRQAPGKGLEWVSSIYSDGSHTYYADSVKGRFTISRDNSKNTLYLQMNSLRAEDTAVYYCAKNLEHYSGSYYYTDPRYDYWGQGTLVTVSS VL: SSELTQDPAVSVALGQTVRITCQGGSLGSSYVHWYQQKPGQAPVLVIYDGDSRPSGIPDRFSGSSSGNTASLTITGAQAEDEADYYCQSADSSGNAVFGGGTQLTVL", "DISCRETE_LABEL": "y"}
{"BINDER": "13E4_MG (antibody, V domains shown, germlined clone; also called germlined 13E4) VH: EVQLLESGGGLVQPGGSLRLSCAASGFTFSSYVMSWVRQAPGKGLEWVSSIYHDGSHTYYADFVKGRFTISRDNSKNTLYLQMNSLRAEDTAVYYCAKGTSYSGSYYYTDPFFGSWGQGTLVTVSS VL: SSELTQDPAVSVALGQTVRITCQGGSLGSNYAYWYQQKPGQAPVLVIYDDDSRPSGIPDRFSGSSSGNTASLTITGAQAEDEADYYCQSADSNGNAVFGGGTQLTVL", "DISCRETE_LABEL": "y"}
{"BINDER": "18E2_VL Y34H_MG (antibody, V domains shown, germlined clone) VH: QLLESGGGLVQPGGSLRLSCAASGFTFSSYVMSWVRQAPGKGLEWVSSIYHDGSHTYYADFVKGRFTISRDNSKNTLYLQMNSLRAEDTAVYYCAKGTSYSGSYYYTDPFFGSWGQGTLVTVSS VL: SSELTQDPAVSVALGQTVRITCQGDRLGSRYIHWYQQKPGQAPVLVIYDDDRRPSGIPDRFSGSSSGNTASLTITGAQAEDEADYYCQSADSSGNPVFGGGTQLTVL", "DISCRETE_LABEL": "n"}

All values here come from patent US20220177604A1.
